test system: SW837 cells; experiment: SW837 CTG proliferation assay (CRC); assay type: cell-based; conditions: Homo sapiens; SW837 CTG proliferation; read-out: IC50 SW837
recorded endpoint: IC50 (nM)

[[record]]
molecule = "C=CC(=O)N1[C@@H](C)CN(c2cc(O[C@@H](C)[C@@H]3CCCN3C)nc(-c3cc([C@@]4(C)CCCc5sc(N)c(C#N)c54)on3)n2)C[C@@H]1C"
recorded_endpoint = "IC50"
unit_of_measure = "nM"
readout_value = 0.69


(P) C=CC(=O)N1CCN(c2cc(O[C@@H](C)[C@@H]3CCCN3C)nc(-c3cc([C@@]4(C)CCCc5sc(N)c(C#N)c54)on3)n2)CC12CC2
(Q) C=CC(=O)N1CCC(Oc2cc(N3CCN(C)C[C@@H]3C)nc(-c3cc(C4(C)CCCc5sc(N)c(C#N)c54)no3)n2)CC1 (some centres unmarked)
(R) C=C(F)C(=O)N1[C@@H](C)CN(c2cc(O[C@@H](C)[C@@H]3CCCN3C)nc(-c3cc([C@@]4(C)CCCc5sc(N)c(C#N)c54)on3)n2)C[C@@H]1C
(S) C=CC(=O)N1CCN(c2cc(O[C@@H](C)[C@@H]3CCCN3C)nc(-c3cc(C4(C)CCCc5sc(N)c(C#N)c54)no3)n2)CC1 (some centres unmarked)
(T) C=CC(=O)N1CCN(c2cc(O[C@@H](C)[C@@H]3CCCN3C)nc(-c3cc([C@@]4(C)CCCc5sc(N)c(C#N)c54)sn3)n2)CC12CC2
// smallest IC50 at index 0, largest at the end // ordering of labels required in reply
T, S, R, P, Q
(T: 0.8 nM, S: 1.3 nM, R: 5.63 nM, P: 15.8 nM, Q: 44.7 nM)

Every entry's value here was drawn from patent US11945812B2.
